Target: UniProt O14746
Assay: Q-TRAP telomerase activity in PC3 prostate cancer cells
Format: cell-based
Parameters: allow the enzymatic addition of telomeric DNA repeats by endogenous telomerase; endogenous in cells; host or cells: PC3 prostate cancer cells (protein extract of lysed cell pellets)
Details: PC3, 72 h
MEASURED_QUANTITY: IC50
Respond with the figure and its unit, in that order.

I'm hoping you can list IC50 for every compound here, please.
1. O=C1OC[C@H](Cc2cccc(O)c2)[C@H]1Cc1cccc(O)c1 (racemic) [Enterolactone, reference compound]
2. O=C1OCC(Cc2ccc3c(c2)OCO3)/C1=C\c1cccc(O)c1 (single isomer, unassigned) [Enantiomer A]
3. O=C1OCC(Cc2ccc3c(c2)OCO3)/C1=C\c1cccc(O)c1 (single isomer, unassigned) [Enantiomer B]

1: 10.7 µM; 2: 18.7 µM; 3: 2.38 µM

---

Hi there, I'd appreciate the recorded pIC50 for every entry that follows.
Target: telomerase (Homo sapiens, UniProt O14746)
Sequence (O14746 whole entry): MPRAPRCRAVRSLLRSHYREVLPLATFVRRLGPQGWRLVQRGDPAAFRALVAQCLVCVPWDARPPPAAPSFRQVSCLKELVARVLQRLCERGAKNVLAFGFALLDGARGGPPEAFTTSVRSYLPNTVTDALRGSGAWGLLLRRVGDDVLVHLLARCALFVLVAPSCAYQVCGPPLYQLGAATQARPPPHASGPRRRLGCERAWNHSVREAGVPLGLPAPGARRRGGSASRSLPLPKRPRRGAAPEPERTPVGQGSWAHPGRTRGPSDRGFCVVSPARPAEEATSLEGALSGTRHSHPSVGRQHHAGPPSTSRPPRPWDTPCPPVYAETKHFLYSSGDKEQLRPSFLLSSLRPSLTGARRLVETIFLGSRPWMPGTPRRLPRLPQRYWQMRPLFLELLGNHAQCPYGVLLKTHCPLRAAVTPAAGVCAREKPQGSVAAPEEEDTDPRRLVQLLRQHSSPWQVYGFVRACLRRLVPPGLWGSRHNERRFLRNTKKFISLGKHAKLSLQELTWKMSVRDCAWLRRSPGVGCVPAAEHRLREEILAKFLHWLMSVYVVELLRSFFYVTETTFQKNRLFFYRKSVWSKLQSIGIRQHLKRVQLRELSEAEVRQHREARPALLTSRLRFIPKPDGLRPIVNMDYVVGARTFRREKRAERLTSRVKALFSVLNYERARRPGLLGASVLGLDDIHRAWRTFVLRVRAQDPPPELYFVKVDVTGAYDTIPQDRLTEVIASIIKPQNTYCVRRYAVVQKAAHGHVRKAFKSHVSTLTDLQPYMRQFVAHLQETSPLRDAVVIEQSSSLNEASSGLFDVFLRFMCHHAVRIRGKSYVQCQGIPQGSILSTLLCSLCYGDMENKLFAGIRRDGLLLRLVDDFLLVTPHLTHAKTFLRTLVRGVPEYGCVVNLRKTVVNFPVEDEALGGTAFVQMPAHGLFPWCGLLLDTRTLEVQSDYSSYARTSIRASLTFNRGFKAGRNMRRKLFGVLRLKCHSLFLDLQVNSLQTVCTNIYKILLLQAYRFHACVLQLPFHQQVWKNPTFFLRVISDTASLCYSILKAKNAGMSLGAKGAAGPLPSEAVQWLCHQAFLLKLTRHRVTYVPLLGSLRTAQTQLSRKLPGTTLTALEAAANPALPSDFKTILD
Sequence (O60832 whole entry partner): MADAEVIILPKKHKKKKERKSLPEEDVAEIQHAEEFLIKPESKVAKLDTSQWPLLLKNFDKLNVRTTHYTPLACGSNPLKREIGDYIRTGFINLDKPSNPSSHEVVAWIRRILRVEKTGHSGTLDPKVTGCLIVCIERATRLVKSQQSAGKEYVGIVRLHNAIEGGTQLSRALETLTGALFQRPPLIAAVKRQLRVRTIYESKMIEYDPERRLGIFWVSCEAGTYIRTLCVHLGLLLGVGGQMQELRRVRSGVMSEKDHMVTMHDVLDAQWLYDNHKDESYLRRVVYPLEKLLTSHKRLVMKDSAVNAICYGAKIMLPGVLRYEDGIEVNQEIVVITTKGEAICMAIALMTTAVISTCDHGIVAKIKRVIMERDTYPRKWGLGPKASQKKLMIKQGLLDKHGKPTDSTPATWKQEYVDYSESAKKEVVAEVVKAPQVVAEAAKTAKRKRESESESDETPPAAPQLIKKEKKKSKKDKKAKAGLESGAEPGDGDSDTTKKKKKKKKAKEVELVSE
Sequence (Q9NPE3 whole entry partner): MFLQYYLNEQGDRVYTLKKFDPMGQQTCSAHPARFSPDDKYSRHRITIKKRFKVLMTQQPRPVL
Sequence (Q9NX24 whole entry partner): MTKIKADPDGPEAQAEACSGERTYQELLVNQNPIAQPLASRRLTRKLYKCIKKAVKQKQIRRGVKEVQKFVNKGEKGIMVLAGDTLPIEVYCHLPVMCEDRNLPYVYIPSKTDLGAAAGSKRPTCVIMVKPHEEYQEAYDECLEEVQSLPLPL
Sequence (Q9NY12 whole entry partner): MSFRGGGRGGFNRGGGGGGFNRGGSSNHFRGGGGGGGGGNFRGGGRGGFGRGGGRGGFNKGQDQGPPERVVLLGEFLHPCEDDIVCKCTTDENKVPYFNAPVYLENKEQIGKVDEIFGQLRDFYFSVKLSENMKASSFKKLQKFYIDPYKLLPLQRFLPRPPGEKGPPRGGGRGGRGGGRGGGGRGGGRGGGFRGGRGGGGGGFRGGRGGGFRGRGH
Sequence (Q9BUR4 whole entry partner): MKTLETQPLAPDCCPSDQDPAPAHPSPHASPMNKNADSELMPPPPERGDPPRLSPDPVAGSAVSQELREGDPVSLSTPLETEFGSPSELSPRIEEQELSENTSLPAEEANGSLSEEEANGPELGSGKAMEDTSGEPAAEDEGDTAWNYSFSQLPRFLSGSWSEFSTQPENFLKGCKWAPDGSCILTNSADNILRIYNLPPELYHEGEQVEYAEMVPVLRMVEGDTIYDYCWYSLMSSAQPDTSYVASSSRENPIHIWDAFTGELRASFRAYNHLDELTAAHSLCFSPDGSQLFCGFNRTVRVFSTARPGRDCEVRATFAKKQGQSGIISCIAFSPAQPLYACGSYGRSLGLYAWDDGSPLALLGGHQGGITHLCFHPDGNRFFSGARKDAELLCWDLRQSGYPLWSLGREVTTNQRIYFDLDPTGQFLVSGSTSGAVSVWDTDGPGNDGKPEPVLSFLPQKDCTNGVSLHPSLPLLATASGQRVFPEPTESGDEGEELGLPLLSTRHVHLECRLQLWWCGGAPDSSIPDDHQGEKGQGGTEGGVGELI
Assay: Q-TRAP telomerase activity in PC3 prostate cancer cells
Type: cell-based
Parameters: allow the enzymatic addition of telomeric DNA repeats by endogenous telomerase; endogenous in cells; host or cells: PC3 prostate cancer cells (protein extract of lysed cell pellets)
Settings: PC3, 48 h
Numbers only, as −log10 of the molar value.

Take a look at these entries with their results.
COMPOUND | ASSAY_SYSTEM | RECORDED_NUMBER
O=C1OC[C@H](Cc2cccc(O)c2)[C@H]1Cc1cccc(O)c1 (racemic) [Enterolactone, reference compound] | telomerase (Homo sapiens, UniProt O14746) | 7.30
O=C1OCC(Cc2ccc3c(c2)OCO3)/C1=C\c1cccc(O)c1 (single isomer, unassigned) [Enantiomer B] | telomerase (Homo sapiens, UniProt O14746) | 4.81

Shift focus to the following entry.
Give reported pIC50 value for O=C1OCC(Cc2ccc3c(c2)OCO3)/C1=C\c1cccc(O)c1 (single isomer, unassigned) [Enantiomer A]
5.33

---

Molecular target: telomerase (Homo sapiens, UniProt O14746)
Assay: Q-TRAP telomerase activity in MCF7 breast cancer cells
Type: cell-based
Set-up: allow the enzymatic addition of telomeric DNA repeats by endogenous telomerase; endogenous in cells
Details: MCF7, 24 h
pIC50: −log10 of the molar value.
MEASURED_QUANTITY: pIC50

Take a look at these entries with their results.
COMPOUND | pIC50
O=C1OCC(Cc2ccc3c(c2)OCO3)/C1=C\c1cccc(O)c1 (single isomer, unassigned) [Enantiomer B] | < 4.40
O=C1OCC(Cc2ccc3c(c2)OCO3)/C1=C\c1cccc(O)c1 (single isomer, unassigned) [Enantiomer A] | ~5.60

Shift focus to the following entry.
Give reported pIC50 value for O=C1OC[C@H](Cc2cccc(O)c2)[C@H]1Cc1cccc(O)c1 (racemic) [Enterolactone, reference compound]
< 4.40

---

Target: telomerase (Homo sapiens)
Experiment: Q-TRAP telomerase activity in MCF7 breast cancer cells
Format: cell-based
Parameters: allow the enzymatic addition of telomeric DNA repeats by endogenous telomerase; endogenous in cells
Conditions: MCF7, 72 h
Hi there, I'd appreciate the recorded IC50 for every entry that follows.

COMPOUND | IC50
O=C1OCC(Cc2ccc3c(c2)OCO3)/C1=C\c1cccc(O)c1 (single isomer, unassigned) [Enantiomer A] | 19.8 µM
O=C1OCC(Cc2ccc3c(c2)OCO3)/C1=C\c1cccc(O)c1 (single isomer, unassigned) [Enantiomer B] | > 40 µM

Shift focus to the following entry.
Fill: IC50 (telomerase (Homo sapiens)) for this compound O=C1OC[C@H](Cc2cccc(O)c2)[C@H]1Cc1cccc(O)c1 (racemic) [Enterolactone, reference compound]
> 40 µM
